Target: T1, human IL4 (human, UniProt P05112 25-153, biotinylated in the SPR and competition assays (sites not given))
T1 construct: Peprotech #200-04, mature protein produced in E. coli; also called hIL4; Interleukin 4
T1 sequence: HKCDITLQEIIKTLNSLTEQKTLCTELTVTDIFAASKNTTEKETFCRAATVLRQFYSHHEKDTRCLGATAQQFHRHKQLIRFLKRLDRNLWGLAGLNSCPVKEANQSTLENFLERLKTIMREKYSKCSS
Assay: SPR ProteOn, biotin-IL4 on neutravidin chip, 1:1 fit
This section presents binders with their documented pKd values.
Value format note: pKd is -log10 of concentration (mol/L); just state the number.

Please review the following examples before continuing.
C06_13A10 (designed binder, ankyrin repeat protein; His-tagged, IMAC-purified) DLGKKLLEAARAGQDDEVRILMANGADVNVSDRIGNTPLHLAAVYVHLEIVEVLLKNGADVNALDDDGLTPLHLAAADGHLEIVEVLLKHGADVNATDSHVWTPLHLAAFFGHLEIVEVLLKYGADVNAQDKFGKTAFDISIDNGNEDLAEILQKLN; 10.23
C06_53E9 (designed binder, ankyrin repeat protein; His-tagged, IMAC-purified) DLGKELLEAASAGQDDEVHILMANGADVNASDKDGSTPLHLAAVYGHLEIVEVLLKYGADVNAEDMNGYTPLHLAAADGHLEIVEVLLKYGADVDAKDRTGWTPLHLAGEFGHLEIVEVLLKYGADVNAQDKFGKTAFDISIDNGNEDLAEILQKLN; 9.49
C06_53G6 (designed binder, ankyrin repeat protein; His-tagged, IMAC-purified) NLGKKLLEAARAGQDDEVRILMANGADVNATDDWGDTLLHLAATDGHLEIVEVLLKYGADVNANDAIGDTPLHLAALYGHLEIVEVLLKYGADVNATDLHGFTPLHLAAFWGHLEIVEVLLKHGADVNAQDKFGKTAFDISIDNGNEDLAEILQKLN; 10.13

Query: Query (binder): C06_19F8 (designed binder, ankyrin repeat protein; His-tagged, IMAC-purified) DLGKKLLEAARAGQDDEVRILMANGADVNATDDWGDTLLHLAATDGHLEIVEVLLKNGADVNASDSQGLTPLHLAAYYGHLEIVEVLLKYGADVNANDHHGITPLHLAAFAGHLEIVEVLLKYGADVNAQDKFGKTAFDISIDNGNEDLAEILQKLN ; field requested: pKd
Result: 8.85

Query: Need pKd, item C06_44F6 (designed binder, ankyrin repeat protein; His-tagged, IMAC-purified) DLGKELLEAARAGQDDEVHILMANGADVNALDDSGYTPLHLAAEDGHLEIVEVLLKHGADVNAMDNIGNTSLHLAAFDGHLEIVEVLLKYGADVNAVDLAGVTPLHVAAFYGHLEIVEVLLKHGADVNAQDKFGKTAFDISIDNGNEDLAEILQKLN
Result: 10.01

Query: Entry C06_20B8 (designed binder, ankyrin repeat protein; His-tagged, IMAC-purified) DLGKKLLEAASAGQDDEVHILMANGADVNAVDHDGFTPLHLAAADGHLEIVEVLLKHGADVNADDNFGWTPLHLAAFFGHLEIVEVLLKHGADVNAKDQTGLTPLHLAAVDGHLEIVEVLLKHGADVNAQDKFGKTAFDISIDNGNEDLAEILQKLN : reported pKd = ?
Result: 10.09

Query: Which pKd value belongs to C06_14A4 (designed binder, ankyrin repeat protein; His-tagged, IMAC-purified) DLGKKLLEAARAGQDDEVRILMANGADVNATDAWGLTPLHLAALLGHLEIVEVLLKHGADVNAHDETGFTPLHLAAVEGHLEIVEVLLKYGADVNASDILGRTPLHLAANFGHLEIVEVLLKYGADVNAQDKFGKTAFDISIDNGNEDLAEILQKLN ?
Result: 10.07

Reference source for all entries: patent US20120277143A1
